assayed.system: T1, recombinant human FGF23 (R179Q) (human, UniProt Q9GZV9 25-251)
T1 construct: also called rhFGF23(R179Q); hFGF23(R179Q)
T1 sequence (looked up): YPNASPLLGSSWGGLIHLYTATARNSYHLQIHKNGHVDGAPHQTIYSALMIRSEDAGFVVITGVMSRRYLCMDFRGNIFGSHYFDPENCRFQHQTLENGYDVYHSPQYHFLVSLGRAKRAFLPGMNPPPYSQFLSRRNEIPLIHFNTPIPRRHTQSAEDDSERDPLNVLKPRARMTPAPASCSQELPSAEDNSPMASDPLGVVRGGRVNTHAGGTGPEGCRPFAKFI
protocol.text: SPR, antibody captured on hIgG chip, rhFGF23(R179Q) analyte
measured.property: pKd
Scale: pKd equals -log10([C]), with [C] in mol/L.

binder	pKd
UGX139 (antibody, human IgG1, kappa, V domains shown, also called UGX038; LC:N92Y) VH: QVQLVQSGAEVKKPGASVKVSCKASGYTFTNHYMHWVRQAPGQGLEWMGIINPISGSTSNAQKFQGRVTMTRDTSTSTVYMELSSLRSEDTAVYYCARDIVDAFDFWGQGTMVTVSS VL: AIQLTQSPSSLSASVGDRVTITCRASQGISSALVWYQQKPGKAPKLLIYDASSLESGVPSRFSGSGSGTDFTLTISSLQPEDFATYYCQQFYDYFTFGPGTKVDIKR	10.79

## Task Check the records and state pKd for UGX151 (antibody, human IgG1, kappa, V domains shown, also called HC:N31F) VH: QVQLVQSGAEVKKPGASVKVSCKASGYTFTFHYMHWVRQAPGQGLEWMGIINPISGSTSNAQKFQGRVTMTRDTSTSTVYMELSSLRSEDTAVYYCARDIVDAFDFWGQGTMVTVSS VL: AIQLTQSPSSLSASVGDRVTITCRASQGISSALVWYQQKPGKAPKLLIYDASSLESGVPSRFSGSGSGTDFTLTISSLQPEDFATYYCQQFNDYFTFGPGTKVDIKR
## Result 10.59
